Source: paper PMC12616683

test: FBMN analysis of short peptides in small intestine contents and serum after oral DHG; conditions: small intestine contents, 240 min after oral DHG, C57 mice; FBMN feature intensity, peptides smaller than 690 Da
Square brackets hold non-standard residues; d marks the D form. Peptide text beside a SMILES is read from it. pGlu = O=C1CC[CH](C(=O)O)N1
// reported Peptide signal (feature intensity) in the small intestine, 240 min per item
MEASURE: Peptide signal (feature intensity) in the small intestine, 240 min

COMPOUND: CCCC[C@H](NC(=O)[C@H](C)N)C(=O)O [L-Alanyl-L-norleucine] (HELM PEPTIDE1{A.[Nle]}$$$$V2.0)
MEASURED_VALUE: 1.49E+05
//
COMPOUND: CC(C)C[C@H](NC(=O)[C@@H](N)CC(=O)O)C(=O)O [Asp-Leu] (H-Asp-Leu-OH)
MEASURED_VALUE: 1.44E+07
//
COMPOUND: N[C@@H](CCC(=O)O)C(=O)N[C@@H](Cc1ccccc1)C(=O)O
MEASURED_VALUE: 1.66E+07
//
COMPOUND: CC(C)CC1NC(=O)C2CC(O)CN2C1=O (centres unmarked)
MEASURED_VALUE: 2.54E+06
//
COMPOUND: CSCCC(NC(=O)C1CCC(=O)N1)C(=O)O (centres unmarked) [PyroGlu-Met] ([pGlu]-Met-OH; configuration not given here)
MEASURED_VALUE: 0.00E+00
//
COMPOUND: CC(C)C[C@H](N)C(=O)N[C@H](C(=O)N[C@@H](CCCCN)C(=O)O)C(C)C [Leu-Val-Lys] (H-Leu-Val-Lys-OH)
MEASURED_VALUE: 2.22E+06
//
COMPOUND: O=C1N[C@@H](Cc2ccccc2)C(=O)N2C[C@@H](O)C[C@@H]12
MEASURED_VALUE: 6.80E+06
//
COMPOUND: CC(C)[C@H](NC(=O)CN)C(=O)O [Gly-Val] (H-Gly-Val-OH)
MEASURED_VALUE: 2.70E+06

* * *

Listed compounds paired with reported Peptide signal (feature intensity) in the small intestine, 120 min
assay: FBMN analysis of short peptides in small intestine contents and serum after oral DHG; settings: small intestine contents, 120 min after oral DHG, C57 mice; FBMN feature intensity, peptides smaller than 690 Da
Peptide text beside a SMILES is read from it.
MEASURE: Peptide signal (feature intensity) in the small intestine, 120 min

COMPOUND: CC(C)CC(N)C(=O)NC(Cc1ccccc1)C(=O)O (stereo not drawn) [Leu-Phe] (H-Leu-Phe-OH; configuration not given here)
MEASURED_VALUE: 8.51E+05
//
COMPOUND: Nc1nc2c(ncn2[C@@H]2O[C@H](CO)[C@@H](O)[C@H]2O)c(=O)[nH]1 [Guanosine]
MEASURED_VALUE: 0.00E+00
//
COMPOUND: CC(C)C[C@H](NC(=O)[C@@H](N)CO)C(=O)N[C@@H](CCCCN)C(=O)O [Ser-Leu-Lys] (H-Ser-Leu-Lys-OH)
MEASURED_VALUE: 1.60E+06
//
COMPOUND: CC(C)[C@H](NC(=O)[C@@H]1CCC(=O)N1)C(=O)O [PyroGlu-Val] (HELM PEPTIDE1{[Glp].V}$$$$V2.0)
MEASURED_VALUE: 0.00E+00

* * *

test system: H2O2-induced HT-22 cells; test: Neuroprotection in H2O2-injured HT-22 cells (CCK-8 cell viability); conditions: compound 50 μM; H2O2-only model (0 μM) 48.645±0.347
MEASURE: Cell viability(%) in H2O2-induced HT-22 cells

MOLECULE: O=C1NCC(=O)N2CCC[C@@H]12
TARGET_ENTITY: H2O2-induced HT-22 cells
MEASURED_VALUE: 53.985

MOLECULE: O=C1NCC(=O)N2CC(O)CC12 (stereo not shown)
TARGET_ENTITY: H2O2-induced HT-22 cells
MEASURED_VALUE: 62.961

MOLECULE: CC(C)CC1NC(=O)C2CC(O)CN2C1=O (stereo not shown)
TARGET_ENTITY: H2O2-induced HT-22 cells
MEASURED_VALUE: 60.867

MOLECULE: O=C1N[C@@H](Cc2cnc[nH]2)C(=O)N2CCC[C@@H]12
TARGET_ENTITY: H2O2-induced HT-22 cells
MEASURED_VALUE: 55.307

MOLECULE: CC(C)CC1NC(=O)C2CCCN2C1=O (stereo not shown)
TARGET_ENTITY: H2O2-induced HT-22 cells
MEASURED_VALUE: 57.413

MOLECULE: CC(C)[C@@H]1NC(=O)[C@@H]2CCCN2C1=O
TARGET_ENTITY: H2O2-induced HT-22 cells
MEASURED_VALUE: 60.019

MOLECULE: O=C1[C@@H]2CCCN2C(=O)[C@@H]2CCCN12
TARGET_ENTITY: H2O2-induced HT-22 cells
MEASURED_VALUE: 60.084

MOLECULE: O=C1N[C@@H](Cc2ccccc2)C(=O)N2C[C@@H](O)C[C@@H]12
TARGET_ENTITY: H2O2-induced HT-22 cells
MEASURED_VALUE: 63.241

MOLECULE: O=C1[C@@H]2C[C@@H](O)CN2C(=O)[C@@H]2CCCN12
TARGET_ENTITY: H2O2-induced HT-22 cells
MEASURED_VALUE: 67.606

MOLECULE: CC[C@H](C)[C@@H]1NC(=O)[C@@H]2CCCN2C1=O
TARGET_ENTITY: H2O2-induced HT-22 cells
MEASURED_VALUE: 61.087

* * *

Attribute: Peptide signal (feature intensity) in the small intestine, 60 min
assay: FBMN analysis of short peptides in small intestine contents and serum after oral DHG; settings: small intestine contents, 60 min after oral DHG, C57 mice; FBMN feature intensity, peptides smaller than 690 Da
Square brackets hold non-standard residues; d marks the D form. Peptide text beside a SMILES is read from it. pGlu = O=C1CC[CH](C(=O)O)N1
MEASURE: Peptide signal (feature intensity) in the small intestine, 60 min

COMPOUND: CC(C)C[C@H](NC(=O)[C@@H](N)[C@@H](C)O)C(=O)O [Thr-Leu] (H-Thr-Leu-OH)
MEASURED_VALUE: 4.45E+06
//
COMPOUND: CC(C)C[C@H](NC(=O)[C@@H](N)CO)C(=O)N[C@@H](CCCCN)C(=O)O [Ser-Leu-Lys] (H-Ser-Leu-Lys-OH)
MEASURED_VALUE: 6.69E+05
//
COMPOUND: CC[C@H](C)[C@H](NC(=O)[C@@H](N)Cc1ccccc1)C(=O)N[C@@H](CCCCN)C(=O)O [Phe-Ile-Lys] (H-Phe-Ile-Lys-OH)
MEASURED_VALUE: 1.05E+05
//
COMPOUND: CC(C)CC(NC(=O)C(N)Cc1ccc(O)cc1)C(=O)O (stereo not drawn) [Tyr-Leu] (H-Tyr-Leu-OH; configuration not given here)
MEASURED_VALUE: 2.16E+06
//
COMPOUND: Cc1cn([C@H]2C[C@H](O)[C@@H](CO)O2)c(=O)[nH]c1=O
MEASURED_VALUE: 1.66E+05
//
COMPOUND: CC(C)C[C@H](N)C(=O)N[C@@H](C)C(=O)O [Leu-ala] (H-Leu-Ala-OH)
MEASURED_VALUE: 1.64E+06
//
COMPOUND: CCC(C)C(N)C(=O)N1CCCC1C(=O)O (stereo not drawn) [Ile-Pro] (H-Ile-Pro-OH; configuration not given here)
MEASURED_VALUE: 6.59E+06
//
COMPOUND: O=C1CCC(C(=O)NC(Cc2ccc(O)cc2)C(=O)O)N1 (stereo not drawn) [PyroGlu-Tyr] ([pGlu]-Tyr-OH; configuration not given here)
MEASURED_VALUE: 2.55E+07
//
COMPOUND: O=C(O)C(Cc1ccccc1)NC(=O)C1CCCN1 (stereo not drawn) [Pro-Phe] (H-Pro-Phe-OH; configuration not given here)
MEASURED_VALUE: 9.73E+05
//
COMPOUND: CC(C)C[C@H](N)C(=O)N[C@@H](CCC(=O)O)C(=O)O [Leu-Glu] (H-Leu-Glu-OH)
MEASURED_VALUE: 7.70E+06
//
COMPOUND: CSCCC(NC(=O)C1CCC(=O)N1)C(=O)O (stereo not drawn) [PyroGlu-Met] ([pGlu]-Met-OH; configuration not given here)
MEASURED_VALUE: 5.95E+06
//
COMPOUND: N[C@@H](CCC(=O)O)C(=O)N[C@@H](Cc1ccccc1)C(=O)O
MEASURED_VALUE: 3.96E+06
//
COMPOUND: CC(C)C(NC(=O)C(N)Cc1ccccc1)C(=O)O (stereo not drawn) [Phe-Val] (H-Phe-Val-OH; configuration not given here)
MEASURED_VALUE: 1.09E+06
//
COMPOUND: CC(C)[C@H](N)C(=O)NCC(=O)N[C@H](C(=O)O)C(C)C [Val-Gly-Val] (H-Val-Gly-Val-OH)
MEASURED_VALUE: 3.24E+07
//
COMPOUND: CC(C)C[C@H](NC(=O)[C@@H](N)Cc1ccccc1)C(=O)N[C@@H](CCCCN)C(=O)O [Phe-Leu-Lys] (H-Phe-Leu-Lys-OH)
MEASURED_VALUE: 4.25E+05
//
COMPOUND: CC(C)[C@H](NC(=O)[C@@H](N)CO)C(=O)O [Ser-Val] (H-Ser-Val-OH)
MEASURED_VALUE: 5.23E+06
//
COMPOUND: CCC(C)C(N)C(=O)NC(C(=O)O)C(C)O (stereo not drawn) [Ile-Thr] (H-Ile-Thr-OH; configuration not given here)
MEASURED_VALUE: 7.13E+06
//
COMPOUND: CC(C)C[C@H](N)C(=O)N[C@H](C(=O)N[C@@H](CCCCN)C(=O)O)C(C)C [Leu-Val-Lys] (H-Leu-Val-Lys-OH)
MEASURED_VALUE: 3.40E+05
//
COMPOUND: NC(=O)C[C@H](N)C(=O)N[C@@H](Cc1ccccc1)C(=O)O [Asn-Phe] (H-Asn-Phe-OH)
MEASURED_VALUE: 2.86E+06
//
COMPOUND: O=C1N[C@@H](Cc2ccccc2)C(=O)N2C[C@@H](O)C[C@@H]12
MEASURED_VALUE: 0.00E+00
//
COMPOUND: CC[C@H](C)[C@H](N)C(=O)N[C@@H](Cc1ccc(O)cc1)C(=O)O [Ile-Tyr] (H-Ile-Tyr-OH)
MEASURED_VALUE: 8.21E+05
//
COMPOUND: CC(C)CC1NC(=O)C2CC(O)CN2C1=O (stereo not drawn)
MEASURED_VALUE: 0.00E+00
//
COMPOUND: CC(C)CC(N)C(=O)NC(C(=O)O)C(C)C (stereo not drawn) [Leu-Val] (H-Leu-Val-OH; configuration not given here)
MEASURED_VALUE: 7.59E+06
//
COMPOUND: CCCC[C@H](NC(=O)[C@H](C)N)C(=O)O [L-Alanyl-L-norleucine] (HELM PEPTIDE1{A.[Nle]}$$$$V2.0)
MEASURED_VALUE: 0.00E+00
//
COMPOUND: CC(C)C[C@H](NC(=O)CN)C(=O)O
MEASURED_VALUE: 4.18E+07
//
COMPOUND: CC(C)[C@@H]1NC(=O)[C@@H]2CCCN2C1=O
MEASURED_VALUE: 0.00E+00
//
COMPOUND: CSCC[C@H](N)C(=O)O
MEASURED_VALUE: 0.00E+00
//
COMPOUND: CC[C@H](C)[C@H](NC(=O)CN)C(=O)O [Gly-Ile] (H-Gly-Ile-OH)
MEASURED_VALUE: 1.01E+07
//
COMPOUND: O=C1CCC(C(=O)N2CCCC2C(=O)O)N1 (stereo not drawn) [PyroGlu-Pro] ([pGlu]-Pro-OH; configuration not given here)
MEASURED_VALUE: 1.75E+07
//
COMPOUND: CCC(C)C(N)C(=O)NC(CCCCN)C(=O)O (stereo not drawn) [Ile-Lys] (H-Ile-Lys-OH; configuration not given here)
MEASURED_VALUE: 0.00E+00
